# Experiment: blockers of DNA damage checkpoint Chk1 activation – imaging, HeLa, hydroxyurea, phospho-Chk1 nuclear intensity, primary screen (AID 1187)
# Condition set: hydroxyurea-induced phospho-Chk1 immunofluorescence imaging, higher = more signal
For each record, write down the corresponding z-score.
Give bare numbers.

Take a look at these entries with their results.
Compound	z-score
COCCOC(=O)N1C(=O)[C@@]2(c3cc(C#CC4(O)CCCCCC4)ccc31)[C@H](c1ccc(O)cc1)N1[C@H](c3ccccc3)[C@H](c3ccccc3)OC(=O)[C@H]1[C@@H]2C(=O)N1CCN(c2ncccn2)CC1	0.232
COc1ccc(C(=O)Nc2ccc(CN3C(=O)[C@]4(O[C@H](CC(=O)N5Cc6ccccc6C[C@H]5CO)[C@@H]([Si](C)(C)c5ccc(OC)cc5)[C@@H]4C)c4ccccc43)cc2)cc1	0.329
Cc1ccc(S[C@]2(C(=O)NCC(F)(F)F)CC(=O)N(Cc3cc(C(F)(F)F)cc(C(F)(F)F)c3)[C@@H]2c2ccc(CO)cc2I)cc1	0.684
CCOC(=O)C[C@H]1[C@H](OC(=O)c2ccc(-c3ccccc3)cc2)[C@@H](NC(=O)CC(C)C)c2cc(OCCCO)ccc2N1C(=O)c1ccc2ccccc2n1	0.571
Cc1ccc(S[C@]2(C(=O)O)CC(=O)N(C3CCCCC3)[C@@H]2c2ccc(CO)cc2I)cc1	0.675
CCCC#C[Si](O[C@H](CC)c1cn([C@H](C)c2ccccc2)nn1)(C(C)C)C(C)C	-0.399
C=CCC(OC(C)=O)[C@@H]1[C@@H](N(Cc2cccc3ccccc23)C(=O)Cc2ccc(OC)cc2)c2cc(OCCCO)ccc2N1C(=O)c1ccc(-c2ccccc2)cc1 (stereo not given in full)	-0.13
CCCCCC1=C2CNC(C)(C(=O)OC)C=C2C(C)C1=O (stereo not given)	1.45
C=C(COC)/C(=C/C[C@H](OC(=O)c1ccncc1)c1ccccc1OCCO)c1cc(C(=O)OC)ccc1OC	0.0857
CCCC[C@@H](O)C1=C(COc2ccccc2)C[C@H]2C(=O)N(Cc3ccccc3)C(=O)[C@H]2[C@H]1CO	-0.513

Record z-score for all entries; do not skip any.
1. N#Cc1ccc(NN2C(C(O)c3ccc(Br)cc3)C=CC3C(=O)N(c4ccccc4)C(=O)C32)cc1 (stereo not given)
2. C#CCN(Cc1ccccc1Br)[C@H](/C=C/c1ccccc1)[C@@H](O)Cc1ccccc1
3. CN(C)c1ccc(C(O)C2C=CC3C(=O)NC(=O)C3N2Nc2ccccn2)cc1 (stereo not given)

0.0338
0.103
0.493

Record z-score for all entries; do not skip any.
1. C=CCOC(=O)[C@@H]1[C@H]2C(=O)O[C@H](c3ccccc3)[C@H](c3ccccc3)N2[C@H](c2ccc(OCCOC(=O)[C@@H]3C[C@@H]4C(=O)N[C@@H](CCCC[N+](C)(C)C)C(=O)N4[C@@H]3c3ccc(O)cc3)cc2)[C@@]12C(=O)Nc1ccc(I)cc12
2. [N-]=[N+]=NCc1ccccc1C[C@@]1(C(N)=O)N=C(c2ccc(OCCCO)cc2)O[C@@H]1c1ccccc1

1. 0.521
2. 0.221

* * *

# Experiment: optical density change of DRC41 E. coli – strain DRC41, OD650, 24 h, E. coli filamentation project, primary screen (AID 1093);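 note: MC1000 strain lacking acrAB efflux and sulA so SOS filamentation is blocked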
# Condition set: E. coli DRC41 growth, higher = more signal, called active from +8 up or from −8 down
Measured metric: z-score
Answers are plain numbers.

Take a look at these entries with their results.
Compound	z-score
CCCC[C@@H](O)C1=C(COC)C[C@H]2C(=O)N(C)C(=O)[C@H]2[C@H]1CO	1.1
CCOC(=O)C[C@H]1[C@H](OC(=O)c2ccc(C(=O)c3ccccc3)cc2)[C@@H](NC(=O)C2CCCCC2)c2cc(OCCCO)ccc2N1C(=O)c1ccc2ccccc2n1	1.25
CCCCC(CC)C(O)C1C=CC2C(=O)N(c3ccccc3)C(=O)C2N1Nc1ccc(C#N)cc1 (centres undefined)	0.0307
COC(=O)[C@@]1(Cc2ccc(OC)cc2)[C@H]2c3cc(C(=O)N4CCCC4)n(CCO)c3C[C@H]2CN1C(=O)c1ccccc1	-1.41
C#CCN(Cc1ccccc1Br)[C@H](/C=C/c1ccccc1)[C@@H](O)Cc1ccccc1	1.44

Record z-score for all entries; do not skip any.
1. C=CCNC(=O)[C@@H]1[C@H]2C(=O)O[C@H](c3ccccc3)[C@H](c3ccccc3)N2[C@H](c2ccc(OCCO)cc2)[C@@]12C(=O)N(C(=O)OCCOC)c1ccc(C#Cc3ccc(OC)cc3)cc12
2. O=C1OCCC=C[C@H]2OC34C=CCN(c5ccc6ccccc6c5)C(=O)[C@H]3N(CCCO)C(=O)[C@@H]4C12 (some centres undefined)
3. CC#CCO[Si](C#Cc1ccccc1)(C(C)C)C(C)C

[0.361, 0.843, -0.304]

Record z-score for all entries; do not skip any.
1. C[C@@H]1NC(=O)[C@@H](Cc2ccccc2)NC(=O)[C@@]23C(=O)N[C@@H](Cc4ccccc4)C2[C@H](C)[C@@]2(C)O[C@H]2C3/C=C/C/C=C\CNC1=O (some centres undefined)
2. COC(=O)[C@@]1(Cc2ccc(F)cc2)[C@H]2c3cc(C(=O)N4CCCC4)n(CCc4c[nH]c5ccccc45)c3C[C@H]2CN1C(=O)c1ccccc1
3. COC(=O)[C@@]1(Cc2ccccc2)[C@H]2c3cc(C(=O)N(C)C)n(Cc4ccc(C)o4)c3C[C@H]2CN1C(=O)c1ccccc1

[-1.02, -1.3, -1.64]

* * *

# Target under test: Torsin-1A (Homo sapiens) (UniProt O14656)
# Sequence (O14656 whole entry, looked up): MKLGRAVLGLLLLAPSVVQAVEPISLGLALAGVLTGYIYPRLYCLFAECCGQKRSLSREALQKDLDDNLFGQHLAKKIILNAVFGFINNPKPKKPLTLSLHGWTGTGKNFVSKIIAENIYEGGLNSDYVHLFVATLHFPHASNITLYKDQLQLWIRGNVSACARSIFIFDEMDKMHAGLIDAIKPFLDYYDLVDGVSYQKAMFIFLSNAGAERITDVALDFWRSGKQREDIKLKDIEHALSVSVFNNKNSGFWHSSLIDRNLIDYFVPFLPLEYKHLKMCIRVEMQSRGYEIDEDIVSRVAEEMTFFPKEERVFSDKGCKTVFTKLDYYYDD
# Experiment: torsin A mutant lysate binding on microarrays – cell lysate, small-molecule microarray, COS7 lysate, 635/667 nm fluorescence, primary screen (AID 1150);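 note: score pools 667 nm emission and signal to noise measuring lysate protein binding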
# Condition set: COS7 hTOR1A mutant lysate, 635 nm fluorescence, higher = more signal
Each entry gets NOT MET if its composite z-score stays under 0.07, and MET if its composite z-score is 0.07 or above.

Compound	Class assignment
COc1ccc([Si](C)(C)[C@H]2[C@H](CC(=O)N(CCO)Cc3ccccc3)O[C@@]3(C(=O)N(C)c4c(Br)cc(C)cc43)[C@@H]2C)cc1	MET
CN(C)C(=O)[C@@]1(Cc2ccccc2)N=C(c2ccc(OCCCO)cc2)O[C@H]1c1ccccc1	NOT MET
CC(C)C(CO)N1C(=O)[C@@H]2C3C(=O)OCCC/C=C\[C@H]3OC23C=CCN(Cn2nnc4ccccc42)C(=O)[C@@H]13 (stereo partly drawn)	NOT MET
C#Cc1cc2ccccc2oc1=O	NOT MET
O=C(NCCN1CCOCC1)[C@@H]1c2ccccc2C(=O)N(C2Cc3ccccc3C2)[C@H]1c1ccc(CO)cc1	MET
COc1cc2c(cc1O)C(c1cccs1)N(Cc1cc3c(cc1Br)OCO3)CC2 (stereo not drawn)	MET

Decide: is the reported value of composite z-score for CCCC[C@@H]1C[C@H]1[C@@H](NC(=O)c1cccs1)c1ccccc1C(F)(F)F equal to or greater than 0.07?
MET

Decide: is the reported value of composite z-score for C=CCC(OC(C)=O)[C@@H]1[C@@H](N(Cc2ccc(-c3cccc(C(F)(F)F)c3)o2)C(=O)Cc2ccc(OC)cc2)c2cc(OCCCO)ccc2N1C(=O)c1ccc(-c2ccccc2)cc1 (stereo partly drawn) equal to or greater than 0.07?
NOT MET

* * *

# System: XIP peptide (Xip251-270)
# Experiment: compounds binding XIP fragment 251-270 – biochemical, small-molecule microarray, fluorescence 635/667 nm, 0.5 µg/mL protein, primary screen (AID 1183)
# Condition set: fluorescence 635 nm, higher = more signal
For each record, write down the corresponding composite z-score.
Numbers only.

Record composite z-score for all entries; do not skip any.
1. O=C1O[C@@H](c2ccccc2)[C@@H](c2ccccc2)N2[C@@H](c3ccc(OCCO)cc3)[C@]3(C(=O)Nc4ccc(C#CC5=CCCCC5)cc43)[C@@H](C(=O)NC[C@H](O)c3ccccc3)[C@H]12
2. COc1cc(C(O)C2C=CC3C(=O)N(C)C(=O)C3N2Nc2ccccc2)cc(OC)c1OC (configuration not stated)
3. CCCC=C(CCC)[C@@H](NS(=O)(=O)CC12CCC(CC1=O)C2(C)C)c1ccc(C(=O)OC)cc1 (some centres not stated)
4. CN(C)c1ccc(C(O)C2C=CC3C(=O)NC(=O)C3N2Nc2ccccn2)cc1 (configuration not stated)
5. COc1ccc([Si](C)(C)[C@H]2[C@H](CC(=O)N3CCC[C@H]3CO)O[C@@]3(C(=O)N(Cc4ccc(N5CCOC5=O)cc4)c4ccccc43)[C@@H]2C)cc1
6. COC(=O)C1=CC(CCCO)=CC(c2ccc(CN3CCCC3)cc2)N(Cc2cccc(OC(F)(F)F)c2)C=C1C(=O)OC (configuration not stated)
7. Cc1ccc(S[C@]2(C(=O)NCCN3CCOCC3)CC(=O)N(Cc3ccccc3Cl)[C@@H]2c2ccc(CO)cc2I)cc1

1: 0.693; 2: -0.0114; 3: 0.316; 4: -0.0515; 5: 0.719; 6: 0.677; 7: 0.433
